STUDY_SYSTEM: Gamma-aminobutyric acid receptor subunit alpha-1 (Rattus norvegicus)
Sequence (P62813 whole entry): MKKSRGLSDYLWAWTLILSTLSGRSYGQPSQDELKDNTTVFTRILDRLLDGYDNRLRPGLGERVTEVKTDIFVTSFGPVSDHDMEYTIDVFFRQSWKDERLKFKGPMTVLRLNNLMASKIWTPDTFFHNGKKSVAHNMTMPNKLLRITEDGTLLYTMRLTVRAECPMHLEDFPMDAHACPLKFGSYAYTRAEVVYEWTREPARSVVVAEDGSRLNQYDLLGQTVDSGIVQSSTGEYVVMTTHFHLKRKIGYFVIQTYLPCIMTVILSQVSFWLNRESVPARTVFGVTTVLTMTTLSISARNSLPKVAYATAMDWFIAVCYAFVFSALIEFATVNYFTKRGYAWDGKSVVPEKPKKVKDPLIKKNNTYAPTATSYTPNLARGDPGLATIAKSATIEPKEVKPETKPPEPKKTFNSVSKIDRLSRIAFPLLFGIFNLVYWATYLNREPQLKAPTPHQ
REPORTED_PROPERTY: Ki (µM)
Please give a number only; it is taken to be in µM.

Q: Fill blank: measured Ki of the compound CCOC(=O)c1cc2c(cn1)[nH]c1ccccc12 is ____.
Result: 2.92
